Target: Translocator protein (Homo sapiens) (UniProt P30536)
Sequence (P30536 whole entry): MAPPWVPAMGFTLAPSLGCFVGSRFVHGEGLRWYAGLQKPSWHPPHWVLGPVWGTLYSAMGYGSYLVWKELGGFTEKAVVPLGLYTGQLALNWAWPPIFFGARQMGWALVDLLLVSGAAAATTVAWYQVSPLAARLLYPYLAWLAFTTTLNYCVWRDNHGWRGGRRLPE
Settings: Compound concentration 10 µM
Description: PDSP Primary Binding target: TSPO - Compounds are tested at 10 uM concentration, plate are incubated at room temperature in the dark for 90 minutes. Reaction are stopped by vacuum filtration onto 0.3% polyethyleneimine soaked filter mats using Filtermate harvester. Scintilation cocktail is then melted onto microwave-dried filters on a hot plate and the radio activity is counted in Microbia counter.
Lab note: anything with inhibition at or over 20% counts as Condition met; the rest go in Condition not met.

INSERT INTO results (compound, subject_of_test, label_value) VALUES
  ('CCCn1c(=O)c2[nH]c(-c3cnn(Cc4cccc(C(F)(F)F)c4)c3)nc2n(CC)c1=O', 'Translocator protein (Homo sapiens) (UniProt P30536)', 'Condition not met'),
  ('CC(C)NCC(O)COc1cccc2[nH]ccc12 (stereo not given)', 'Translocator protein (Homo sapiens) (UniProt P30536)', 'Condition met'),
  ('CCCCC#Cc1nc(NC)c2ncn([C@@H]3O[C@H](CO)[C@@H](O)[C@H]3O)c2n1', 'Translocator protein (Homo sapiens) (UniProt P30536)', 'Condition not met'),
  ('CCc1cc2c(c(CC)n1)CCC(=O)N2Cc1ccc(-c2ccccc2-c2nnn[nH]2)cc1', 'Translocator protein (Homo sapiens) (UniProt P30536)', 'Condition met'),
  ('COc1cccc([C@@H](C)NCCCc2ccccc2Cl)c1', 'Translocator protein (Homo sapiens) (UniProt P30536)', 'Condition not met'),
  ('NC[C@@H]1O[C@H](C23CC4CC(CC(C4)C2)C3)Cc2c1ccc(O)c2O', 'Translocator protein (Homo sapiens) (UniProt P30536)', 'Condition not met'),
  ('Cc1nc2sccn2c(=O)c1CCN1CCC(=C(c2ccc(F)cc2)c2ccc(F)cc2)CC1', 'Translocator protein (Homo sapiens) (UniProt P30536)', 'Condition met'),
  ('O=C(O)COc1cccc(CN(Cc2ccc(-n3cccn3)cc2)S(=O)(=O)c2cccnc2)c1', 'Translocator protein (Homo sapiens) (UniProt P30536)', 'Condition not met'),
  ('C=CCN1C[C@H](C)N([C@H](c2ccc(C(=O)N(CC)CC)cc2)c2cccc(O)c2)C[C@H]1C', 'Translocator protein (Homo sapiens) (UniProt P30536)', 'Condition met');

----------
Below is a list of entries, each paired with its recorded inhibition value.
Biological target: UniProtKB P35462
Sequence (P35462 whole entry): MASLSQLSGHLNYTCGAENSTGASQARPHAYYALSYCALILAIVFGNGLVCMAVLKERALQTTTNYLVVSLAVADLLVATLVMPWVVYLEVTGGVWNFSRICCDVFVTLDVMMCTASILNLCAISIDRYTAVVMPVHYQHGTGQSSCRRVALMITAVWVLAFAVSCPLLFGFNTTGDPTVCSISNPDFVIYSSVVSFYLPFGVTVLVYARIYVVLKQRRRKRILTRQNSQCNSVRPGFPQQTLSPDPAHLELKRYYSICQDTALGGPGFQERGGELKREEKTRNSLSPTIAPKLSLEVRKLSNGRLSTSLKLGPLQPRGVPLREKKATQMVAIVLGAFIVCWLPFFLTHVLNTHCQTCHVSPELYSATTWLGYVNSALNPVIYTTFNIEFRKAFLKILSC
Conditions: Compound concentration 10 µM
Description: PDSP Primary Binding target: DRD3 - Compounds are tested at 10 uM concentration, plate are incubated at room temperature in the dark for 90 minutes. Reaction are stopped by vacuum filtration onto 0.3% polyethyleneimine soaked filter mats using Filtermate harvester. Scintilation cocktail is then melted onto microwave-dried filters on a hot plate and the radio activity is counted in Microbia counter.
Parameter Measured: inhibition (%)

INSERT INTO assay_data (molecule, subject_of_test, recorded_value) VALUES
  ('Cc1cccc(NC(=O)N[C@@H]2N=C(c3ccccc3)c3ccccc3N(C)C2=O)c1', 'UniProtKB P35462', 0.6),
  ('O=C(Nc1ccc(Cl)cc1)Nc1cccc(-c2cccc(N3CCCC3)n2)c1', 'UniProtKB P35462', 48.5),
  ('CCCCN(CC)c1nc(C)nc2c1c(C)cn2-c1c(C)cc(C)cc1C', 'UniProtKB P35462', 18.6),
  ('CCCSc1nc(N[C@@H]2C[C@H]2c2ccc(F)c(F)c2)c2nnn([C@@H]3C[C@H](OCCO)[C@@H](O)[C@H]3O)c2n1', 'UniProtKB P35462', 29.6),
  ('O=C1O[C@]2(CC[C@H](C(=O)Nc3ccn(-c4ccccc4F)n3)CC2)c2cnccc21', 'UniProtKB P35462', 73.2),
  ('CCCNS(=O)(=O)Nc1ncnc(OCCOc2ncc(Br)cn2)c1-c1ccc(Br)cc1', 'UniProtKB P35462', 54.8),
  ('NC[C@@H]1O[C@H](C23CC4CC(CC(C4)C2)C3)Cc2c1ccc(O)c2O', 'UniProtKB P35462', 81),
  ('COc1ccc(NC(=O)c2ccc(-c3ccc(-c4noc(C)n4)cc3C)cc2)cc1OCCN(C)C', 'UniProtKB P35462', 33.1),
  ('CN(C(=O)Cc1ccc(Cl)c(Cl)c1)C(CN1CCCC1)c1cccc(OCC(=O)O)c1 (stereo not given)', 'UniProtKB P35462', 3.88),
  ('CC(C)[C@H](CO)Nc1nc(Nc2cccc(Cl)c2)c2ncn(C(C)C)c2n1', 'UniProtKB P35462', 22.4),
  ('Cc1cc(NC(=O)NCCN2CCC(O)(Cc3ccccc3)CC2)c2ccccc2n1', 'UniProtKB P35462', 27.4),
  ('Clc1cccc(COc2cncc(N3CCNCC3)n2)c1', 'UniProtKB P35462', 79.6),
  ('CN1C2CCC1CC(OC(c1ccc(F)cc1)c1ccc(F)cc1)C2 (stereo not given)', 'UniProtKB P35462', 79.5),
  ('O=C(O)C1CN(Cc2ccc(OCc3ccc(Cl)c(Cl)c3)cc2)C1', 'UniProtKB P35462', 39.5),
  ('COc1ccccc1CN[C@H]1C2CCN(CC2)[C@H]1C(c1ccccc1)c1ccccc1', 'UniProtKB P35462', 43),
  ('CN1CCCC(n2nc(Cc3ccc(Cl)cc3)c3ccccc3c2=O)CC1 (stereo not given)', 'UniProtKB P35462', 83.9),
  ('CNC[C@H](O)c1ccc(O)c(O)c1', 'UniProtKB P35462', 47.1),
  ('c1cc(CN2CCCNCCNCCCNCC2)ccc1CN1CCCNCCNCCCNCC1', 'UniProtKB P35462', 37.2),
  ('Oc1ccc2c3c1O[C@H]1c4[nH]c5c(c4C[C@@]4(O)[C@@H](C2)N(CC2CC2)CC[C@]314)C[C@@]1(O)[C@H]2Cc3ccc(O)c4c3[C@@]1(CCN2CC1CC1)[C@H]5O4', 'UniProtKB P35462', 4.68),
  ('c1ccc(N2CCN(Cc3nc4ccccc4[nH]3)CC2)nc1', 'UniProtKB P35462', 33.1);
